system-name: T1, TNF-R2 (a protein having the amino acid sequence, Accession No. M55994 registered at GENBANK) (UniProt P20333 23-257, limits assumed)
T1 construct: also called TNF receptor with 75 kilo daltons
T1 sequence (looked up): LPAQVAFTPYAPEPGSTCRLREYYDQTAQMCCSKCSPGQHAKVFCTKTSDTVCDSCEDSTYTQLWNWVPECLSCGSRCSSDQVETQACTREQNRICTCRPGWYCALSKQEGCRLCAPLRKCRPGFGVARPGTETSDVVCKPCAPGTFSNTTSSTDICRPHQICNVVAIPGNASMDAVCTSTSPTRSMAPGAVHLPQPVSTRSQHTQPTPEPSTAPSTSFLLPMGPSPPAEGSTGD
assay-method-text: SPR (BIACORE 2000), receptor on sensor tip; grade 1 = 0.001 to 0.1 time that of recombinant TNF-α
endpoint-label: binding affinity relative to recombinant TNF-α

binder: TNF mutant protein of clone No. 36 (ligand, Mutant of lysine-replaced TNF, made in E. coli; also called TNF antagonist of clone No. 36) VRSSSRTPSDMPVAHVVANPQAEGQLQWLNRRANALLANGVELRDNQLVVPSEGLYLIYSQVLFSGQGCPSTHVLLTHTISRIAPGYSHPVNLLSAIRSPCQRETPEGAEANPWYEPIYLGGVFQLEPGDRLSAEINRPDYLDFAESGQVYFGIIAL
measured-result: 0.001 to 0.1 fold

binder: TNF mutant protein of clone No. 33 (ligand, Mutant of lysine-replaced TNF, made in E. coli) VRSSSRTPSDMPVAHVVANPQAEGQLQWLNRRANALLANGVELRDNQLVVPSEGLYLIYSQVLFSGQGCPSTHVLLTHTISRINHRYQDPVNLLSAIRSPCQRETPEGAEANPWYEPIYLGGVFQLEPGDRLSAEINRPDYLDFAESGQVYFGIIAL
measured-result: 0.001 to 0.1 fold

Consider the additional binder presented here.
Item: TNF mutant protein of clone No. 22 (ligand, Mutant of lysine-replaced TNF, made in E. coli) VRSSSRTPSDMPVAHVVANPQAEGQLQWLNRRANALLANGVELRDNQLVVPSEGLYLIYSQVLFSGQGCPSTHVLLTHTISRISRVYTAPVNLLSAIRSPCQRETPEGAEANPWYEPIYLGGVFQLEPGDRLSAEINRPDYLDFAESGQVYFGIIAL | binding affinity relative to recombinant TNF-α: 0.001 to 0.1 fold
